In this section, each of the compounds is paired with its reported IC50.
# SYSTEM NAME: BACE1 (Homo sapiens, UniProt P56817)
# Sequence (P56817 46-501, species assumed): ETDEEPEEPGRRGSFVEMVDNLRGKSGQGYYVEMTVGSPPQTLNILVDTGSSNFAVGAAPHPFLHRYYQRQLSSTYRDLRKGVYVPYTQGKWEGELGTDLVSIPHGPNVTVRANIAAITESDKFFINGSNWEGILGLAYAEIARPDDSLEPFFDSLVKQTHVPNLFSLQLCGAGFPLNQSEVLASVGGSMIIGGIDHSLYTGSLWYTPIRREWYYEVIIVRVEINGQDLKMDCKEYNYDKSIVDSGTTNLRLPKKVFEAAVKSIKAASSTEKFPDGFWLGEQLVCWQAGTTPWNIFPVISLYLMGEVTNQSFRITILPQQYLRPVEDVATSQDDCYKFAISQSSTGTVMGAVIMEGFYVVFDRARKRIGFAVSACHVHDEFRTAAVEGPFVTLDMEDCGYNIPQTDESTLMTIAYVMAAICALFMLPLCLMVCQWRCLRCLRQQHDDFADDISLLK
# TEST DETAILS: In Vitro Enzymatic BACE FRET (Fluorescence Resonance Energy Transfer) Assay
# Type: biochemical
# STUDY CONDITIONS: Table IV, class symbols; read-out: BACE1 FRET assay
# Description: In Vitro Enzymatic BACE FRET (Fluorescence Resonance Energy Transfer) Assay (Enzyme Assay Data in the Example Tables I, II, III & IV) The assay buffer used in this screen is 0.05 M acetate, pH 4.2, 10% DMSO final, 100 uM genapol (which is a nonionic detergent, below its Critical Micelle Concentration). […] The FRET assay is terminated with by addition of Tris buffer, which raises the pH to neutrality, and the fluorescence is determined. […]

Example results:
CC(C)(C)OC(=O)n1c(-c2ccc3c(c2)[C@@]2(COC(N)=N2)c2ccccc2O3)cc2ccccc21 : > 5000 nM
CC(C)(C)COc1ccc2c(c1)[C@]1(COC(N)=N1)c1cc(C(=O)NC3CC3)ccc1O2 : < 100 nM
CC(C)(C)COc1ccc2c(c1)[C@]1(COC(N)=N1)c1cc(C3=CCCCC3)ccc1O2 : < 100 nM
NC1=N[C@@]2(CO1)c1cc(-c3cncnc3)ccc1Oc1cnc(-c3ccccc3)cc12 : < 100 nM

// IC50 value for COc1ccc2c(c1)[C@]1(COC(N)=N1)c1cc(NC(=O)C3CCCO3)ccc1O2 (stereo partly shown) : 100 to 1000 nM

// IC50 value for `NC1=N[C@]2(CO1)c1cc(OC[C@H](O)C(F)(F)F)ccc1Oc1ccc(-c3cccnc3)cc12` : < 100 nM

// IC50 value for `Cc1ccc(-c2ccc3c(c2)[C@]2(COC(N)=N2)c2cc(-c4cncnc4)ccc2O3)o1` : < 100 nM

* * *

# SYSTEM NAME: BACE1 (Homo sapiens, UniProt P56817)
# TEST DETAILS: In Vitro BACE Cell-based Assay (HEK cell assay): Aβ40 in conditioned medium of cells stably expressing Amyloid Precursor Protein, sandwich ELISA
# STUDY CONDITIONS: Table 1; Aβ40, 24 h incubation; read-out: HEK cell assay
pIC50: −log10 of the molar value.
In this section, each of the molecules is paired with its reported pIC50.

Cc1ccc2c(c1)Oc1ccc(-c3ccccc3Cl)cc1C21COC(N)=N1 (centres unmarked) : < 5.30

// pIC50 value for COc1ccc2c(c1)C1(COC(N)=N1)c1cc(-c3cccc(C)c3)ccc1O2 (centres unmarked) : < 5.30

// pIC50 value for COc1ccc2c(c1)C1(COC(N)=N1)c1cc(-c3cccnc3Cl)ccc1O2 (centres unmarked) : < 5.30

* * *

# SYSTEM NAME: BACE1 (Homo sapiens, UniProt P56817)
# TEST DETAILS: In Vitro Enzymatic BACE FRET (Fluorescence Resonance Energy Transfer) Assay
# Assay type: biochemical
# STUDY CONDITIONS: Table IV, class symbols; read-out: BACE1 FRET assay
pIC50: −log10 of the molar value.
READOUT NAME: pIC50

Example results:
CC(C)(C)C#Cc1ccc2c(c1)[C@]1(COC(N)=N1)c1cc(C#CC(C)(C)C)cnc1O2 : 6.00 to 7.00
CC(C)(C)COc1ccc2c(c1)[C@]1(COC(N)=N1)c1cc(-c3ccc(F)nc3)cnc1O2 : 6.00 to 7.00
COc1cnc2c(c1)[C@@]1(COC(N)=N1)c1cc(Br)ccc1O2 : < 5.30

Next compound, please.
// pIC50 value for `NC1=N[C@@]2(CO1)c1cc(-c3cccnc3F)ccc1Oc1cnc(-c3cccnc3F)cc12` : > 7.00

* * *

# SYSTEM NAME: UniProt:P56817
# TEST DETAILS: In Vitro BACE Cell-based Assay (HEK cell assay): Aβ40 in conditioned medium of cells stably expressing Amyloid Precursor Protein, sandwich ELISA
# STUDY CONDITIONS: read-out: HEK cell assay
pIC50: −log10 of the molar value.
READOUT NAME: pIC50

Example results:
NC1=N[C@@]2(CO1)c1cc(-c3cccnc3)ccc1Oc1ccc(-c3ccsc3)cc12 [compound 672] : > 7.00
NC1=N[C@]2(CO1)c1cc(-c3cccnc3)ccc1Oc1cnc(Cl)cc12 [compound 955] : < 5.30
CC(C)(O)COc1ccc2c(c1)[C@]1(COC(N)=N1)c1cc(C#CC3CC3)ccc1O2 [compound 937] : 6.00 to 7.00
CC(C)(C)COc1ccc2c(c1)[C@]1(COC(N)=N1)c1cc(-c3csc(C(F)F)c3)ccc1O2 [compound 737] : 6.00 to 7.00
NC1=N[C@@]2(CO1)c1cc(-c3cccnc3)ccc1Oc1ccc(N3CCOCC3)cc12 [compound 764] : > 7.00

// pIC50 value for CC(C)(C)COc1ccc2c(c1C#N)[C@]1(COC(N)=N1)c1cc(-c3cccnc3)ccc1O2 [compound 943] : 6.00 to 7.00

// pIC50 value for CC(C)(C)COc1ccc2c(c1)[C@]1(COC(N)=N1)c1cc(C3CC4CCC3C4)ccc1O2 (stereo partly drawn) [compound 700] : < 5.30

// pIC50 value for NC1=N[C@]2(CO1)c1cc(-c3ccc(OC(F)F)cc3)ccc1Oc1ccc(-c3cncnc3)cc12 [compound 773] : 6.00 to 7.00

// pIC50 value for CCCOc1cc2c(cc1F)Oc1ccc(-c3cncnc3)cc1[C@@]21COC(N)=N1 [compound 940] : > 7.00

* * *

In this section, each of the compounds is paired with its reported pIC50.
# SYSTEM NAME: UniProt:P56817
# TEST DETAILS: In Vitro BACE Cell-based Assay (HEK cell assay): Aβ40 in conditioned medium of cells stably expressing Amyloid Precursor Protein, sandwich ELISA
# STUDY CONDITIONS: Table II; Aβ40, 24 h incubation; read-out: HEK cell assay
pIC50: −log10 of the molar value.

Cc1ncccc1-c1ccc2c(c1)[C@@]1(COC(N)=N1)c1cc(OCC(C)(C)C)ccc1O2 : 6.00 to 7.00
CC(C)(C)COc1ccc2c(c1)[C@]1(COC(N)=N1)c1cc(N3CCOCC3)ccc1O2 : 6.00 to 7.00
CCCc1ccc2c(c1)[C@@]1(COC(N)=N1)c1cc(-c3cncnc3)ccc1O2 : 6.00 to 7.00

// pIC50 value for `Cc1cncc(-c2ccc3c(c2)[C@@]2(COC(N)=N2)c2cc(OCC(C)(C)C)ccc2O3)c1` : > 7.00

// pIC50 value for `CC(C)(C)COc1ccc2c(c1)[C@@]1(COC(N)=N1)c1cc(-c3cc(Cl)ccc3F)cnc1O2` : 5.30 to 6.00

// pIC50 value for `NC1=N[C@]2(CO1)c1cc(OCC3CCCC3)ccc1Oc1ccc(-c3cncnc3)cc12` : > 7.00

// pIC50 value for CC(C)(C)COc1ccc2c(c1)[C@]1(COC(N)=N1)c1cc(-c3cc(Cl)ccc3F)cnc1O2 [Example 69] : 5.30 to 6.00

// pIC50 value for NC1=N[C@]2(CO1)c1cc(OCC3CC3(F)F)ccc1Oc1ccc(-c3cncnc3)cc12 (some centres unmarked) : > 7.00

* * *

# SYSTEM NAME: BACE1 (Homo sapiens, UniProt P56817)
# TEST DETAILS: In Vitro Enzymatic BACE FRET (Fluorescence Resonance Energy Transfer) Assay
# Assay type: biochemical
# STUDY CONDITIONS: read-out: BACE1 FRET assay
# Experimental: In Vitro Enzymatic BACE FRET (Fluorescence Resonance Energy Transfer) Assay (Enzyme Assay Data in the Example Tables I, II, III & IV) The assay buffer used in this screen is 0.05 M acetate, pH 4.2, 10% DMSO final, 100 uM genapol (which is a nonionic detergent, below its Critical Micelle Concentration). […] The FRET assay is terminated with by addition of Tris buffer, which raises the pH to neutrality, and the fluorescence is determined. […]
READOUT NAME: IC50

CCCOc1cc2c(cc1F)Oc1ccc(-c3cccnc3)cc1[C@@]21COC(N)=N1 : < 100 nM
COC(C)(C)COc1ccc2c(c1)[C@]1(COC(N)=N1)c1cc(C#CC3CC3)ccc1O2 : < 100 nM
Cc1cnc(F)c(-c2ccc3c(c2)[C@@]2(COC(N)=N2)c2cc(C4=CCOCC4)ncc2O3)c1 : < 100 nM
NC1=N[C@@]2(CO1)c1cc(-c3cncnc3)ccc1Oc1ccc(N3CC(F)(F)C3)cc12 : < 100 nM
CC(C)(C)C#Cc1ccc2c(c1)C1(COC(N)=N1)c1cc(C#CC(C)(C)C)ccc1O2 : 100 to 1000 nM

// IC50 value for `NC1=N[C@@]2(CO1)c1cc(-c3ccc(F)nc3)ccc1Oc1cnc(C3=CCOCC3)cc12` : < 100 nM

// IC50 value for `NC1=N[C@@]2(CO1)c1cc(-c3cccnc3)ccc1Oc1ccc(-c3nccs3)cc12` : < 100 nM

// IC50 value for `CC(C)(C)OC(=O)N1CC=C(c2ccc3c(c2)[C@]2(COC(N)=N2)c2cc(-c4cncnc4)ccc2O3)CC1` : < 100 nM

// IC50 value for `N#Cc1ccccc1Oc1ccc2c(c1)[C@]1(COC(N)=N1)c1cc(-c3cncnc3)ccc1O2` : 100 to 1000 nM

// IC50 value for `Cn1cc(-c2cc3c(cc2F)Oc2ccc(-c4cccnc4)cc2[C@@]32COC(N)=N2)cn1` : < 100 nM

// IC50 value for `CC(C)(C)C#Cc1cnc2c(c1)[C@]1(COC(N)=N1)c1cc(-c3cncnc3)ccc1O2` : < 100 nM

// IC50 value for `CC(C)(C)COc1ccc2c(c1)[C@@]1(CSC(N)=N1)c1cc(-c3cncnc3)ccc1O2` : < 100 nM

// IC50 value for `CC(C)(C)C#Cc1ccc2c(c1)[C@]1(COC(N)=N1)c1nc(-c3cccnc3)ccc1O2` : 100 to 1000 nM

// IC50 value for `CC(C)(C)C#Cc1cc2c(cn1)Oc1ccc(-c3cncnc3)cc1[C@@]21COC(N)=N1` : < 100 nM

// IC50 value for `NC1=NC2(CO1)c1cc(C3CC3)ccc1Oc1ccc(C3CC3)cc12` : 1000 to 5000 nM

// IC50 value for `CC(C)(F)COc1cc(F)c2c(c1)[C@]1(COC(N)=N1)c1cc(-c3cncnc3)ccc1O2` : < 100 nM
